tested on: UACC-62 melanoma; experiment: NCI tumour cell line growth inhibition, 48 h
# TGI listing for each entry below

Reference set, count: 4
- COMPOUND: "C=C(CNCCO)[C@@H]1CC[C@]2(CO)CC[C@]3(C)[C@H](CC[C@@H]4[C@@]5(C)CCC(N)C(C)(C)[C@@H]5CC[C@]43C)[C@@H]12 (stereo partly specified)"
  TGI: "3.36 µM"
- COMPOUND: "CSc1ccc(/C=C2\\CN(C)C/C(=C\\c3ccc(SC)cc3)C2=O)cc1"
  TGI: "> 100 µM"
- COMPOUND: "Cc1c2n(c(=O)[nH]c1=O)C1OC(CO)C(O2)C1N=[N+]=[N-] (stereo unspecified)"
  TGI: "> 100 µM"
- COMPOUND: "C=C1C[C@@H]2CC[C@@]34CC5O[C@H]6C(O[C@H]7CC[C@H](CC(=O)O[C@@H]8[C@@H](C)[C@@H]9O[C@@H]%10C[C@]%11(C[C@@H]%12O[C@]%13(C[C@H](C)[C@@H]%14O[C@@H]%15CC(C(O)CO)O[C@@H]%15C[C@@H]%14O%13)C[C@H](C)[C@@H]%12O%11)O[C@@H]%10C[C@@H]9O[C@H]8CC8O[C@@H](CC[C@@H]1O2)C[C@@H](C)C8(O)CO)O[C@@H]7[C@@H]6O3)[C@H]5O4 (stereo partly specified)"
  TGI: "> 1 µM"

Incoming: Find the measured TGI of Cc1ccc2c(c1)[nH]c(=S)n2C=C(C(N)=O)C(N)=O with UACC-62 melanoma as test system.
Outgoing: > 100 µM

Incoming: Enter recorded TGI with UACC-62 melanoma for COc1cc(/C=C/c2cc(/C=C/c3ccc(O)c(OC)c3)n(C(=O)Nc3ccc(F)cc3)n2)ccc1O here.
Outgoing: 6.68 µM

###

tested on: OVCAR-8 ovarian; assay: NCI tumour cell line growth inhibition, 48 h
OUTCOME_MEASURE: TGI

Worked cases, answers included:
- COMPOUND: "CC1OC(OC2C(OC(=O)[C@]34CCC(C)(C)C[C@H]3C3=CC[C@@H]5[C@@]6(C)CC[C@H](OC7OC(C(=O)O)C(O)C(O)C7O)C(C)(C)[C@@H]6CC[C@@]5(C)[C@]3(C)C[C@H]4O)OCC(O)C2O)C(O)C(O)C1OC1OCC(OC2OCC(O)C(O)C2O)C(O)C1O (some centres undefined)"
  TGI: "32.3 µM"
- COMPOUND: "CC1=C(C#N)C23C(=O)c4ccccc4C(O)=C2C(=O)C=CC3(O)N1Cc1ccccc1 (centres undefined)"
  TGI: "> 100 µM"
- COMPOUND: "COC(=O)NC(Nc1ccccn1)(C(F)(F)F)C(F)(F)F"
  TGI: "> 100 µM"
- COMPOUND: "Cn1c2ccc([N+](=O)[O-])cc2c(=O)n1Cc1ccccc1F"
  TGI: "> 100 µM"
- COMPOUND: "O[C@H]1[C@H]2c3cc4c(cc3CN3CCC(=C[C@@H]1O)[C@H]23)OCO4"
  TGI: "7.55 µM"
- COMPOUND: "CSC(=N/C=C/c1ccccc1)SC"
  TGI: "> 100 µM"
- COMPOUND: "NC1CC(=O)c2cscc21 (centres undefined)"
  TGI: "> 100 µM"
- COMPOUND: "COc1ccc(/C=C\\c2cc(OC)c3c(c2)OCO3)c(O)c1O"
  TGI: "32.5 µM"

Now consider a different compound.
Incoming: Please look at CC(=O)OC1COC(n2c(=S)n(-c3ccc(C)cc3)c(=O)c3ccccc32)C(OC(C)=O)C1OC(C)=O (centres undefined) and tell me its recorded TGI on OVCAR-8 ovarian.
Outgoing: > 100 µM

###

system: NCI-H522 lung; assay: NCI tumour cell line growth inhibition, 48 h
Outcome: Fulfilled for TGI of at least 3 µM; Not fulfilled for anything lower.

Here are 5 molecules together with their reported answers.
- MOLECULE: "N#CC(C#N)=C1C(=Cc2ccc(OCCCCCCCCCCSSCCCCCCCCCCOc3ccc(C=C4C(=C(C#N)C#N)c5ccccc5C4=C(C#N)C#N)cc3)cc2)C(=C(C#N)C#N)c2ccccc21"
  DISCRETE_LABEL: "Fulfilled"
- MOLECULE: "CCOc1ccccc1-n1c(CN2CCN(C(=O)COc3ccc(CNCCCCCCN4C5CCCC4CC(OC(=O)Nc4cc(C)ccc4OC)C5)cc3)CC2)nc2ccccc2c1=O (centres undefined)"
  DISCRETE_LABEL: "Fulfilled"
- MOLECULE: "COc1ccc(-c2cc(=O)c3ccc(O)cc3o2)c(OC)c1OC"
  DISCRETE_LABEL: "Fulfilled"
- MOLECULE: "Cc1cccc2oc3c(CC(=O)O)cccc3c(=O)c12"
  DISCRETE_LABEL: "Fulfilled"
- MOLECULE: "Cc1c(-c2ccc(O)cc2)n(CCCCCCNCCOC(=O)NCCCc2ccc(N(CCCl)CCCl)cc2)c2ccc(O)cc12"
  DISCRETE_LABEL: "Fulfilled"

Incoming: Answer whether TGI of CC(=O)[O][Hg][c]1c(N)c(C)cc(C)c1F is greater than or equal to 3 µM.
Outgoing: Not fulfilled

Incoming: Please check the record O=C1/C(=C/c2ccc([N+](=O)[O-])cc2)COc2ccc(O)c(O)c21 and state if its TGI is at or above 3 µM.
Outgoing: Not fulfilled

Incoming: Identify whether the reported TGI of the following molecule is 3 µM or greater: CN(Cc1cnc2nc(N)nc(N)c2n1)c1ccc(C(=O)NCCS(=O)(=O)O)cc1
Outgoing: Fulfilled

Incoming: Given the entry CCCCCCCC(=O)SCC/C=C/[C@@H]1CC(=O)NCc2cccc(n2)C2=N[C@@](C)(CS2)C(=O)N[C@@H](C(C)C)C(=O)N1 , answer whether its TGI meets or surpasses 3 µM.
Outgoing: Not fulfilled

Incoming: Does C=C(C)[C@@H]1CCC2=C[C@@H](OC2=O)[C@@H](C(=C)C)C2=CC(C(=O)O)=C(C1)O2 have a reported TGI of at least 3 µM?
Outgoing: Fulfilled

Incoming: For this molecule, is measured TGI 3 µM or higher? CC1(C)COC(c2ccc(C(F)(F)F)cc2C(O)c2ccc3ccccc3c2)=N1 (centres undefined)
Outgoing: Fulfilled

Incoming: Could you please find out whether c1ccc(C(C2=Nc3cccc4cccc(c34)N2)c2ccccc2)cc1 has TGI that meets 3 µM or exceeds it?
Outgoing: Fulfilled

Incoming: Please check the record CCCN(CCC)CCc1ccc(OC2=CCN(C)CC2)cc1 and state if its TGI is at or above 3 µM.
Outgoing: Fulfilled

Incoming: Hi, just wondering whether O=C(O)c1cc(C(=O)O)cc(N2C(=O)c3ccccc3C2=O)c1 shows TGI of 3 µM or higher.
Outgoing: Fulfilled

Incoming: Please tell me: is the molecule COc1cc(C(=O)/C=C/c2sc(Cl)nc2Cl)cc(OC)c1OC at or over 3 µM in terms of TGI?
Outgoing: Fulfilled

Incoming: Kindly determine if TGI recorded for COc1ccc(-n2/c(=N/C(=S)N(C)C)ss/c2=N\C(=S)N(C)C)cc1 is above or exactly 3 µM.
Outgoing: Fulfilled

Incoming: Hello, I need to know if CC[C@@]12CCCN3CC[C@]4(c5cccc(OC)c5N(C(C)=O)[C@@H]4CC1)[C@H]32 has measured TGI not below 3 µM. Thanks!
Outgoing: Fulfilled

Incoming: Check this molecule for TGI at or above 3 µM: CCCCCCCCSC1=CC(=O)c2nc3ccccc3c3ccnc1c23
Outgoing: Fulfilled

###

test system: SF-539 CNS; test: NCI tumour cell line growth inhibition, 48 h
Item-by-item account of TGI

- MOLECULE: "COc1c2c(cc3c1C(=O)c1c(O)cccc1C3=O)CC(O)CC2 (stereo not drawn)"
  TESTED_TARGET: "SF-539 CNS"
  TGI: "> 100 µM"
- MOLECULE: "O=[N+]([O-])c1cnc(Sc2ccncn2)s1"
  TESTED_TARGET: "SF-539 CNS"
  TGI: "14.9 µM"
- MOLECULE: "COc1c2ccoc2c(/C=C/C=O)c2oc(-c3ccccc3)cc(=O)c12"
  TESTED_TARGET: "SF-539 CNS"
  TGI: "16.4 µM"

Incoming: Please give measured TGI of the following entry: COc1ccc(-c2cc(=O)c3ccc(O)cc3o2)c(OC)c1OC
Outgoing: > 100 µM

Incoming: Annotate the molecule Cc1cc(=O)n2[nH]c(-c3ccc(C(C)(C)C)cc3)cc2n1 with its measured TGI.
Outgoing: > 100 µM

Incoming: Identify the reported TGI for the following entry. Cc1cnc(NC(=O)C(Cc2ccccc2)NC(=O)c2ccccc2)s1 (stereo not drawn)
Outgoing: 31.1 µM

Incoming: Hello, please tell me recorded TGI for this one: NC(N)=N/N=C/c1c(-c2ccc(Cl)c([N+](=O)[O-])c2)nc2sc(Cl)cn12
Outgoing: 4.98 µM

Incoming: State its TGI for this molecule: Cn1c(=O)c2c3ccccc3n(C)c2n(C)c1=O
Outgoing: > 100 µM

Incoming: Specify measured TGI for CCN(CC)CC(C(=O)Nc1c(C)cccc1C)/C(C)=N\NC(=O)C[N+](C)(C)C (stereo not drawn) .
Outgoing: > 100 µM
